# assay system: Bromodomain-containing protein 4 (Homo sapiens)
# test name: Inhibition of BRD4(1) (unknown origin) by Alpha screen binding assay
observable: IC50 (mM)

a: CNC(=O)[C@H](CCCCNC(C)=O)NC
b: C[S+](C)[O-] [DIMETHYL SULFOXIDE]
[Q] Field: entry with larger IC50 (options a / b ). // output: label of the selected item
[A] b
(b: 280 mM, a: 7 mM)
